Hello, the source for this data is patent US20200199207A1, in case you need it.

Target: T1, nAra h 6 (peanut, UniProt Q647G9 22-145)
T1 construct: Bought natural allergen; also called naturally extracted Ara h 6
T1 sequence (looked up): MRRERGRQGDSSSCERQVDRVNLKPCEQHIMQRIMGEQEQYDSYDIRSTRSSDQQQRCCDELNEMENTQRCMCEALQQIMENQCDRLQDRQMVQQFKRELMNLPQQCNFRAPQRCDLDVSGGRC
Experiment: ELISA, antigen-coated plate
PARAMETER: EC50 (µg/mL)
State just the number; it will be interpreted in µg/mL.

Recorded EC50, per entry:
h7G6 (antibody, V domains shown, Recombinant human IgG; also called hMAb 7G6) VH: QVQLVESGGGVVQPGRSLRLSCAASGIAFNDYTMHWVRRSPDKGLEWVAAISYGGTNKYYADSVKGRFTISRDSSKNTLFLQMDSLRVEDTAVYYCARDSGYRSLLHWGQGTLVTVSS VL: EIVLTQSPLSLPVTPGEPASISCRSSQSLVHRNGYNYLDWYLQKPGQSPQLLIYMASKRASGVPDRFSGSGSGTEFTLKISRVEAEDVGIYYCMQALQTWTFGQGTKVEVN
0.0026
h12G10 (antibody, human IgG1, V domains shown, Recombinant human IgG; also called hMAb 12G10) VH: EVQLLESGGRLLRPGGSLSLSCVASGFYFGDFGMSWVRQVPGKGLEWVSGIDWSGRSTGYVDSMKGRLTISRDNDKSSLYLQMNDLRGEDTAVYYCARVGRLCSGDSCDSMGAFDLWGQGTMVTVSS VL: DIQLTQSPSTLSASIGDSVTITCRASQNIDNWLAWYQQKPGKAPRLLIYKASSLGSGVSSKFRGSGFGTEFTLTITSLQPDDFATYYCQKSNGYSRTFGQGTKVDIK
0.0172

Value of EC50 reported for the binder hm37D5 (antibody, V domains shown, also called 37D5 with mouse Fc; hmMAb 37D5) VH: EEQLVESGGRLLRPGESLSLSCAAVGFNFGDFGMAWVRQPPGKGLEWVAGINWSGHSTGFVDSMKGRLTISRDSAKSSLFLQMNSLRGEDTAVYYCARVGRLCSGDICDSMGAFDLWGQGTMVTVSS VL: DIQMTQSPSTLSASIGDRVTITCRASQTIDNWLAWYQQRPGKAPKLLIYQASSLQSGVSSRFRGSGSGTEFTLTITSLQPDDFATYYCQKSNGYSRTFGQGTKVEIK is 0.034
